biological target: bovine beta-2 adrenoceptor (Bos taurus, UniProt Q28044); assay: cAMP assay in CHO cells transfected with the bovine beta-2 adrenoceptor; details: cAMP (DiscoveRx Hit Hunter cAMP II) in CHO cells transfected with bovine beta-2 adrenoceptor, 30 minutes with compound, 0.5 mM IBMX
Sequence (Q28044 whole entry): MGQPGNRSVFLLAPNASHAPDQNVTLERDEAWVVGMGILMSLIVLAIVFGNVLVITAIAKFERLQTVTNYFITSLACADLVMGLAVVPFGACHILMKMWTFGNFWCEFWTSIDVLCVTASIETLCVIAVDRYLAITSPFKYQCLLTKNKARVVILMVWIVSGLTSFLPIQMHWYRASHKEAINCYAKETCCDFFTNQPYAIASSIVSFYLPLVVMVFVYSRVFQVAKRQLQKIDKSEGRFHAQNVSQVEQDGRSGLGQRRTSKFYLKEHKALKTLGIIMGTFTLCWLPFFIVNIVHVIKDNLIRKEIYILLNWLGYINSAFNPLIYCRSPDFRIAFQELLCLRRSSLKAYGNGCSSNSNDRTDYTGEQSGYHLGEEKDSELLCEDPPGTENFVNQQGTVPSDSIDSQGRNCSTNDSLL
pEC50 values for the compounds below.
When answering, recall that pEC50 equals minus log10 of the concentration in mol/L, and write that number alone.

// known answers, use as guide
# compound, pEC50
records = [
    ("CC(CCc1ccc2c(c1)CCO2)N[C@@H]1CCn2c(=O)[nH]c3cccc(c32)[C@H]1O (single isomer, unassigned) [Example 3b]", 6.34),
    ("CC(CCc1ccccc1O)N[C@@H]1CCn2c(=O)[nH]c3cccc(c32)[C@H]1O (mixture of isomers) [Example 6b]", 8.70),
    ("CC(CCc1cccc(O)c1)N[C@@H]1CCn2c(=O)[nH]c3cccc(c32)[C@H]1O (mixture of isomers) [Example 43]", 8.14),
    ("CC(CCc1ccc(O)c(F)c1F)NC1CCn2c(=O)[nH]c3cccc(c32)C1O (single isomer, unassigned) [Example 37]", 8.55),
    ("CC(CCc1cc(Cl)ccc1O)N[C@@H]1CCn2c(=O)[nH]c3cccc(c32)[C@H]1O (single isomer, unassigned) [Example 19a]", 9.22),
]

Indicate the recorded pEC50 value for this compound: CC(CCc1ccccc1O)N[C@@H]1CCn2c(=O)[nH]c3cccc(c32)[C@H]1O (single isomer, unassigned) [Example 6d]
6.50

Indicate the recorded pEC50 value for this compound: CC(CCc1ccccc1NC(=O)C(F)(F)F)N[C@@H]1CCn2c(=O)[nH]c3cccc(c32)[C@H]1O (single isomer, unassigned) [Example 51]
8.44

Indicate the recorded pEC50 value for this compound: CC(CCc1cc(Cl)ccc1O)N[C@@H]1CCn2c(=O)[nH]c3cccc(c32)[C@H]1O (single isomer, unassigned) [Example 19b]
6.91

Indicate the recorded pEC50 value for this compound: COc1cccc(CCC(C)N[C@@H]2CCn3c(=O)[nH]c4cccc(c43)[C@H]2O)c1O (single isomer, unassigned) [Example 8a]
6.70
